Tested on: Staphylococcus aureus ATCC 25923
Format: cell-based
RUN_CONDITIONS: ATCC 25923
Square brackets hold non-standard residues; d marks the D form. Peptide text beside a SMILES is read from it. * marks the point of attachment. Trp(2-Pmc) = Cc1c(C)c(S(=O)(=O)c2[nH]c3ccccc3c2C[C@H](N)C(=O)O)c(C)c2c1OC(C)(C)CC2; Acm = CC(=O)NC*
Provide the reported MIC S. aureus of each item.

Incoming: Give a short answer stating reported MIC S. aureus for CSCC[C@H](NC(=O)[C@H](CCCNC(=N)N)NC(=O)[C@H](Cc1c[nH]c2ccccc12)NC(=O)[C@H](CCC(N)=O)NC(=O)[C@H](Cc1c[nH]c2ccccc12)NC(=O)[C@H](CCCNC(=N)N)NC(=O)[C@H](CC(C)C)NC(=O)[C@H](CSCNC(C)=O)NC(=O)[C@H](CCCCN)NC(=O)[C@H](C)N)C(=O)N[C@@H](CCCNC(=N)N)C(=O)N[C@@H](CCCCN)C(=O)N[C@@H](Cc1ccc(O)cc1)C(=O)NCC(=O)NCC(=O)O [LFM A1 R9 W8 Y13] (H-AKC(Acm)LRWQWRMRKYGG-OH; N-terminus and C-terminus assumed) .
Outgoing: 200 µg/mL

Incoming: Identify MIC S. aureus associated with the compound CSCC[C@H](NC(=O)[C@H](CCCNC(=N)N)NC(=O)[C@H](Cc1c[nH]c2ccccc12)NC(=O)[C@H](CCC(N)=O)NC(=O)[C@H](Cc1c[nH]c2ccccc12)NC(=O)[C@H](CCCNC(=N)N)NC(=O)[C@H](CCCNC(=N)N)NC(=O)[C@H](CSCNC(C)=O)NC(=O)[C@H](CCCCN)NC(=O)[C@@H](N)Cc1ccccc1)C(=O)N[C@@H](CCCCN)C(=O)N[C@@H](C)C(=O)N[C@@H](CC(C)C)C(=O)NCC(=O)N[C@@H](C)C(=O)O [LFB A12] (H-FKC(Acm)RRWQWRMKALGA-OH)
Outgoing: >200 µg/mL

Incoming: Specify MIC S. aureus for CSCC[C@H](NC(=O)[C@H](CCCNC(=N)N)NC(=O)[C@H](C)NC(=O)[C@H](CCC(N)=O)NC(=O)[C@H](Cc1c(S(=O)(=O)c2c(C)c(C)c3c(c2C)CCC(C)(C)O3)[nH]c2ccccc12)NC(=O)[C@H](CCCNC(=N)N)NC(=O)[C@H](CCCNC(=N)N)NC(=O)[C@H](CSCNC(C)=O)NC(=O)[C@H](CCCCN)NC(=O)[C@@H](N)Cc1ccccc1)C(=O)N[C@@H](CCCCN)C(=O)N[C@@H](CCCCN)C(=O)N[C@@H](CC(C)C)C(=O)NCC(=O)N[C@@H](C)C(=O)O [LFB A8 PMC] (H-FKC(Acm)RR[Trp(2-Pmc)]QARMKKLGA-OH) and stop.
Outgoing: 17.5 µg/mL

Incoming: Name the recorded MIC S. aureus of the compound listed here: CSCC[C@H](NC(=O)[C@H](CCCNC(=N)N)NC(=O)[C@H](Cc1c[nH]c2ccccc12)NC(=O)[C@H](CCC(N)=O)NC(=O)[C@H](Cc1c[nH]c2ccccc12)NC(=O)[C@H](CCCNC(=N)N)NC(=O)[C@H](CC(C)C)NC(=O)[C@H](CSCNC(C)=O)NC(=O)[C@H](CCCCN)NC(=O)[C@@H](N)CCCNC(=N)N)C(=O)N[C@@H](CCCNC(=N)N)C(=O)N[C@@H](CCCCN)C(=O)N[C@H](C(=O)NCC(=O)NCC(=O)O)C(C)C [LFM R1, 9 W8] (H-RKC(Acm)LRWQWRMRKVGG-OH; N-terminus assumed)
Outgoing: 75 µg/mL

Incoming: Give reported MIC S. aureus value for `CSCC[C@H](NC(=O)[C@H](CCCNC(=N)N)NC(=O)[C@H](Cc1c[nH]c2ccccc12)NC(=O)[C@H](CCC(N)=O)NC(=O)[C@H](Cc1c[nH]c2ccccc12)NC(=O)[C@H](CCCNC(=N)N)NC(=O)[C@H](CCCNC(=N)N)NC(=O)[C@H](Cc1c[nH]c2ccccc12)NC(=O)[C@H](CCCCN)NC(=O)[C@@H](N)Cc1ccccc1)C(=O)N[C@@H](CCCCN)C(=O)N[C@@H](CCCCN)C(=O)N[C@@H](CC(C)C)C(=O)NCC(=O)N[C@@H](C)C(=O)O`
Outgoing: 20 µg/mL

Incoming: Write down MIC S. aureus measured for item `CSCC[C@H](NC(=O)[C@H](CCCNC(=N)N)NC(=O)[C@H](Cc1c(S(=O)(=O)c2c(C)c(C)c3c(c2C)CCC(C)(C)O3)[nH]c2ccccc12)NC(=O)[C@H](CCC(N)=O)NC(=O)[C@H](Cc1ccc2ccccc2c1)NC(=O)[C@H](CCCNC(=N)N)NC(=O)[C@H](CCCNC(=N)N)NC(=O)[C@H](CSCNC(C)=O)NC(=O)[C@H](CCCCN)NC(=O)[C@@H](N)Cc1ccccc1)C(=O)N[C@@H](CCCCN)C(=O)N[C@@H](CCCCN)C(=O)N[C@@H](CC(C)C)C(=O)NCC(=O)N[C@@H](C)C(=O)O`
Outgoing: 20 µg/mL

Incoming: Name the recorded MIC S. aureus of the item CSCC[C@H](NC(=O)[C@H](C)NC(=O)[C@H](Cc1c[nH]c2ccccc12)NC(=O)[C@H](CCC(N)=O)NC(=O)[C@H](Cc1c[nH]c2ccccc12)NC(=O)[C@H](CCCNC(=N)N)NC(=O)[C@H](CC(C)C)NC(=O)[C@H](CSCNC(C)=O)NC(=O)[C@H](CCCCN)NC(=O)[C@@H](N)CCC(=O)O)C(=O)N[C@@H](CCCNC(=N)N)C(=O)N[C@@H](CCCCN)C(=O)N[C@@H](Cc1ccc(O)cc1)C(=O)NCC(=O)NCC(=O)O [LFM A9 W8 Y13] (H-EKC(Acm)LRWQWAMRKYGG-OH; N-terminus and C-terminus assumed) in your answer.
Outgoing: >1000 µg/mL

* * *

Would you kindly list MIC S. aureus for each of these substances?
System: Staphylococcus aureus ATCC 25923
Format: cell-based
RUN_CONDITIONS: ATCC 25923
Procedure: The bacterial strains used were: Escherichia coli ATCC 25922 and Staphylococcus aureus ATCC 25923. All strains were stored at −70° C. The bacteria were grown in 2% Bacto Peptone water (Difco 1807-17-4). All tests were performed with bacteria in mid-logarithmic growth phase. Determination of the minimum inhibitory concentration (MIC) of the peptides for bacterial strains were performed in 1% Bacto Peptone water. A standard microdilution technique with an inoculum of 2×10^6 CFU/ml was used. […]
Ends that are not written are not given here.

Incoming: Find the measured MIC S. aureus of RRWQWRMKKLG-OH [LFB 20-30] and report it.
Outgoing: >100 µg/mL

Incoming: Note down MIC S. aureus recorded for RRWQWRMKKL-OH [LFB 20-29]
Outgoing: >100 µg/mL

Incoming: Report MIC S. aureus, nothing else, for this substance: RRWAWRMKK-OH [LFB 20-28 A4]
Outgoing: >100 µg/mL

* * *

Tested on: Escherichia coli ATCC 25922
Assay type: cell-based
RUN_CONDITIONS: ATCC 25922
Peptide text beside a SMILES is read from it. * marks the point of attachment. Acm = CC(=O)NC*
PROPERTY_MEASURED: MIC E. coli

Incoming: Determine reported MIC E. coli for CSCC[C@H](NC(=O)[C@H](CCCNC(=N)N)NC(=O)[C@H](C)NC(=O)[C@H](CCC(N)=O)NC(=O)[C@H](Cc1c[nH]c2ccccc12)NC(=O)[C@H](CCCNC(=N)N)NC(=O)[C@H](CCCNC(=N)N)NC(=O)[C@H](CSCNC(C)=O)NC(=O)[C@H](CCCCN)NC(=O)[C@@H](N)Cc1ccccc1)C(=O)N[C@@H](CCCCN)C(=O)N[C@@H](CCCCN)C(=O)N[C@@H](CC(C)C)C(=O)NCC(=O)N[C@@H](C)C(=O)O [LFB A8] (H-FKC(Acm)RRWQARMKKLGA-OH; N-terminus assumed) ; test system: Escherichia coli ATCC 25922.
Outgoing: >200 µg/mL

Incoming: Specify the recorded MIC E. coli for CSCC[C@H](NC(=O)[C@H](C)NC(=O)[C@H](Cc1c[nH]c2ccccc12)NC(=O)[C@H](CCC(N)=O)NC(=O)[C@H](Cc1c[nH]c2ccccc12)NC(=O)[C@H](CCCNC(=N)N)NC(=O)[C@H](CC(C)C)NC(=O)[C@H](CSCNC(C)=O)NC(=O)[C@H](CCCCN)NC(=O)[C@@H](N)CCC(=O)O)C(=O)N[C@@H](CCCNC(=N)N)C(=O)N[C@@H](CCCCN)C(=O)N[C@H](C(=O)NCC(=O)NCC(=O)O)C(C)C [LFM A9 W8] (H-EKC(Acm)LRWQWAMRKVGG-OH; N-terminus assumed) , system: Escherichia coli ATCC 25922.
Outgoing: >1000 µg/mL

Incoming: Recall the reported MIC E. coli of CSCC[C@H](NC(=O)[C@H](CCC(=O)O)NC(=O)[C@H](Cc1c[nH]c2ccccc12)NC(=O)[C@H](CCC(N)=O)NC(=O)[C@H](Cc1c[nH]c2ccccc12)NC(=O)[C@H](CCCNC(=N)N)NC(=O)[C@H](CC(C)C)NC(=O)[C@H](CSCNC(C)=O)NC(=O)[C@H](CCCCN)NC(=O)[C@@H](N)CCC(=O)O)C(=O)N[C@@H](CCCNC(=N)N)C(=O)N[C@@H](CCCCN)C(=O)N[C@H](C(=O)NCC(=O)NCC(=O)O)C(C)C [LFM W8] (H-EKC(Acm)LRWQWEMRKVGG-OH) on Escherichia coli ATCC 25922 and write it down.
Outgoing: >1000 µg/mL
